System: LXRb:RXRa (NR concentration 270 nM, RXRa partner concentration 90 nM)
experiment.notes: PBM binding z-score (relative to random genomic background probes); higher = stronger binding; sequences stand for … in GC…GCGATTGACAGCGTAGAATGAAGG
Give Met when the value for PBM binding z-score is at least 2. Give Not met when it is less.

CGTCCAAGGTCAGAGAGGTCAGTCAATGCCGAGT | Met
ACAGACAGGTGAGTTAAGGTAACTCAGCTGGACG | Not met
CCGACTGGGGCAAGGTTACCGTAACGCACAGCCA | Not met
CGTTAAAGTTCAACTAAGGTAACGTAAAGCACGC | Met
TGAATGAGGTTATATGATCAGGGAACGTTGCAAA | Not met

Q: Is PBM binding z-score for "TCTGGGAGGACACGAAAGGTCAGAGCTCGACATC" at or above 2?
A: Met

Q: And the next one, "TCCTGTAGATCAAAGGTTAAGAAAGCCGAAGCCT" ?
A: Met

Q: And the next one, "GCGACTGGGGCATCAGCAGGTTACTATAACTTAA" ?
A: Not met

Q: And the next one, "GATACAGGGTCAGCTAGAGGCTAGAGTATGGAAA" ?
A: Met

Q: And the next one, "TCTTGTCGATCAATAGAGGTTAAGAAAGTGCGCT" ?
A: Not met

Q: And the next one, "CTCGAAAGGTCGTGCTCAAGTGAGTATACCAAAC" ?
A: Met

Q: And the next one, "CATACAGGGTCAGCTAGGCCACAGTAGGGACGGC" ?
A: Met

====

System: PPARg:RXRa 90nM:30nM, anti-RXR (NR concentration 90 nM, RXRa partner concentration 30 nM)
experiment.notes: PBM binding z-score (relative to random genomic background probes); higher = stronger binding; sequences stand for … in GC…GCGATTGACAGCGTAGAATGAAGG
Documented PBM binding z-score across a set of sequences
Quick one: just the number, no unit, thanks!

Example sequences with recorded PBM binding z-score:
TTACCTAGGTGAAGGTCGTTGATCCCTCTGTAGA | 1.55
TCGTATAGGTAAAAGGTGAAAGTCGGTGTGGTAA | 7.11
TTACCAAGGGGAAAGGTCGTTGATGCACGCCTTG | 6.82

Q: Fill blank: measured PBM binding z-score of the sequence "CAAACTAGGTCACAGACGTCAAAGTCCGTGCGTA" is ____.
A: 7.4

Q: And the next one, "GCTAGCAGGCCAGTTGGGTCACTCAATGACGGGC" ?
A: -0.378

Q: And the next one, "TGAATGAGGTTCAAGATCAGGGAACGTGGCGTCG" ?
A: 1.14

Q: And the next one, "AGAATGAGGTTGTACGTAGATCAGGGAAGAAAGT" ?
A: 0.207

Q: And the next one, "GCGACTGGGGCAAAGTAGGTTACCATAAGGTTGG" ?
A: 2.3

Q: And the next one, "TCTAGTTGGTCGAAGGTCACACACTCGAAATGCG" ?
A: 7.98

====

Test system: RXRa DBDmut IVT, anti-RXR (DBD mutation: RXRa K156A/R161A, NR concentration 90 nM)
experiment.notes: PBM binding z-score (relative to random genomic background probes); higher = stronger binding; sequences stand for … in GC…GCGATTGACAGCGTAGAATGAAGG
Documented PBM binding z-score across a set of sequences
Quick one: just the number, no unit, thanks!

Example sequences with recorded PBM binding z-score:
TCTATTAGTTGAAGGGAAACCGACGAGTCCGTTT | 1.6
CGTCCACGGTCAGAGAGGTCAGTGAATGCCGAGT | 0.914

Now examine the next entry.
Q: Fill blank: measured PBM binding z-score of the sequence "AGAATGAGGTTATACGTAGACCAGGGAAGAAAGT" is ____.
A: 1.61

====

Documented PBM binding z-score across a set of sequences
Tested on: RARg homodimer (NR concentration 270 nM)
experiment.notes: PBM binding z-score (relative to random genomic background probes); higher = stronger binding; sequences stand for … in GC…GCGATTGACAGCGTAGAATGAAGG

CGAACTAGGTCAGAACAGGAGAGTGAAGGATGAT | 3.2
CCTACTGGGCCAAAGTCATTGATCAGTCAAAGCA | -0.109
AGAACGAGGGCCCGCTGAGTTGATAGCAGAGTAG | -0.722
AGAACGAGGGCTATGAGTTGATAGCACGGGTGGC | -0.0854
TCGCGGAGGACACGAAAGGTCAGAGCTCGACATC | 5.1

Q: Query for RARg homodimer (NR concentration 270 nM): what PBM binding z-score does the record show for "AGTCAAAGTTCGTCTAGGTAACGTAAGATATGCT" ?
A: 2.11

Q: And the next one, "ACAGACAGGTGAGTGAACGTAACTCAGCTGGACG" ?
A: 0.417

Q: And the next one, "AGTCAAAGTTCATTTAGGTAACGTAAGATATGCT" ?
A: 5.39

====

Tested on: PPARg:RXRa DBDmut IVT, anti-RXR (DBD mutation: RXRa K156A/R161A, NR concentration 270 nM, RXRa partner concentration 90 nM)
experiment.notes: PBM binding z-score (relative to random genomic background probes); higher = stronger binding; sequences stand for … in GC…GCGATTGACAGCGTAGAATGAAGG
property.name: PBM binding z-score
Quick one: just the number, no unit, thanks!

Example sequences with recorded PBM binding z-score:
TAGCCTAGGTCAGATCGGTCCAGTATACGCTATA | 0.702
CCTACTGGGCTATCAGGTCATTGATATCAACGTT | 3.17
TGAATGAGGTTAAAGATCAGTGAACGTGGCGTCG | 2.37
TCTTTTAGATCAACAGGAGGTTAAGAAAGATCGA | 2.11
AATACAGGGTCACTAGGCCAGGGTAGGTACGAAT | 3.28

Now examine the next entry.
Q: Fill blank: measured PBM binding z-score of the sequence "GGAACGAGGGCAAAGTTGAAAGCATCTGTCGACG" is ____.
A: 4.35

====

Tested on: VDR:RXRa (NR concentration 270 nM, RXRa partner concentration 90 nM)
experiment.notes: PBM binding z-score (relative to random genomic background probes); higher = stronger binding; sequences stand for … in GC…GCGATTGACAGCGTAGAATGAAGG
Documented PBM binding z-score across a set of sequences
Quick one: just the number, no unit, thanks!

CATACAGGGTCAGCTAGGCCCGAGTAGGGACGGC | 2.63

Q: Query for VDR:RXRa (NR concentration 270 nM, RXRa partner concentration 90 nM): what PBM binding z-score does the record show for "AGGATGAGGTTAAGATCAGGGAAACAGAATACAT" ?
A: 1.39

Q: And the next one, "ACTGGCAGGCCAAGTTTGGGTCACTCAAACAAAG" ?
A: 0.456

====

Documented PBM binding z-score across a set of sequences
System: VDR homodimer (NR concentration 270 nM)
experiment.notes: PBM binding z-score (relative to random genomic background probes); higher = stronger binding; sequences stand for … in GC…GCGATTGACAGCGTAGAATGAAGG
Quick one: just the number, no unit, thanks!

Example sequences with recorded PBM binding z-score:
ATAGGTAGGTTATCGGGTCATTCAGTTTGCGCAT | 4.02
TCATATAGGTAAATGCTACGTGAAAGTCCGATCT | 0.41
AGAACGAGGGCATGCTGAGTTGATAGCAGAGTAG | 1.74
GCTGCTAGGTCAGGTTGGTCAGCGAACGGGTACG | 0.896
GATTCAGGGTCAAGGCCAGAGTACGCGTATTGAT | 3.02
GGAACGAGGGCAAAGTGGATAGCATCTGTCGACG | 1.01
TCTAGCAGGTCAGAGGGTCACTCAAGAGGTACGG | 1.72
CGAACTAGGTCATTCAGGACAGTGAATACATTGA | 2.27
GCTCGGAGGACAAGGTCAGAGCCTTGTCCGTAGA | 0.502
CAAACTAGGTAAAAGGTCAAAGTCGAGCCAACCA | 2.02

Now examine the next entry.
Q: Fill blank: measured PBM binding z-score of the sequence "ATCGATAGGTCGTGAGGTGAGTATACAGAAAGGC" is ____.
A: 0.361

====

Tested on: PPARg:RXRa 90nM:30nM, anti-RXR (NR concentration 90 nM, RXRa partner concentration 30 nM)
experiment.notes: PBM binding z-score (relative to random genomic background probes); higher = stronger binding; sequences stand for … in GC…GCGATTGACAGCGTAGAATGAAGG
property.name: PBM binding z-score
Quick one: just the number, no unit, thanks!

AGAATGAGGTTTCCAAAGATCAGGGAAACGCTTG | -0.215

Q: Query for PPARg:RXRa 90nM:30nM, anti-RXR (NR concentration 90 nM, RXRa partner concentration 30 nM): what PBM binding z-score does the record show for "TTACCAAGGTGAAAGGTCGTTCATGCACGCCTTG" ?
A: 8.9

Q: And the next one, "CCTATTAGTTGACCATAACGGCAACCGAAGCTCG" ?
A: 0.318

Q: And the next one, "ATCTCTAGGCAAAAGTTCAGTGAATCCCGAGGAT" ?
A: 6.01
